species on record: Homo sapiens; assay: Selectivity ratio of Ki for delta opioid receptor (unknown origin) to Ki for kappa opioid receptor (unknown origin)
Decide by Ratio Ki: equal to or exceeding 10 means Condition met, less means Condition not met.

Asked: Is Ratio Ki for `O=C(O[C@@]12CCC(=O)[C@@H]3Oc4c(O)ccc5c4[C@@]31CCN(CC1CC1)[C@@H]2C5)c1ccccn1` at or above 10?
Given back: Condition not met

Asked: `O=C(O[C@@]12CCC(=O)[C@@H]3Oc4c(O)ccc5c4[C@@]31CCN(CC1CC1)[C@@H]2C5)c1ccc2ccccc2n1` ?
Given back: Condition not met

Asked: `O=C(N[C@@]12CCC(=O)[C@@H]3Oc4c(O)ccc5c4[C@@]31CCN(CC1CC1)[C@@H]2C5)c1ccccc1` ?
Given back: Condition met

The values you see were collected from ChEMBL document CHEMBL3085727.
